pIC50: −log10 of the molar value.
// pIC50 collected for HCV polymerase (Hepatitis C virus genotype 1b)
Value type: pIC50

>>> print(df.to_string())
                                    molecule                               target_desc  quantitative_readout
 0  O=C(O)c1sc(-c2ccccc2)cc1N1C(=O)CN(S(=O)(=O)c2ccc(OC(F)(F)F)cc2)CC1C1CCCCC1 (stereo not shown)  HCV polymerase (Hepatitis C virus genotype 1b)                  7.62
 1  CC(C)(C)C#Cc1cc(N2C(=O)[C@@](C)(CCO)OC[C@H]2C2CCCCC2)c(C(=O)O)s1  HCV polymerase (Hepatitis C virus genotype 1b)                  8.52
 2  C[C@@H]1CCCN1c1ccc(S(=O)(=O)N2CC(=O)N(c3cc(-c4ccccc4)sc3C(=O)O)C(C3CCCCC3)C2)cc1 (stereo partly shown)  HCV polymerase (Hepatitis C virus genotype 1b)                  8.52
 3  O=C(O)c1sc(-c2ccccc2)cc1N1C(=O)CN(S(=O)(=O)c2ccc(N3CCCCC3)nc2)CC1C1CCCCC1 (stereo not shown)  HCV polymerase (Hepatitis C virus genotype 1b)                  8.40
 4  CCn1cc(S(=O)(=O)N2CC(=O)N(c3cc(C#CC(C)(C)C)sc3C(=O)O)[C@H](C3CCCCC3)C2)cn1  HCV polymerase (Hepatitis C virus genotype 1b)                  8.70
 5  O=C(O)c1sc(-c2ccccc2)cc1N1C(=O)CN(S(=O)(=O)c2ccc(N3CCNCC3)nc2)C[C@@H]1C1CCCCC1  HCV polymerase (Hepatitis C virus genotype 1b)                  6.97
 6  O=C(O)c1sc(-c2ccccc2)cc1N1C(=O)CN(S(=O)(=O)c2ccc(NC3CCCCC3)nc2)CC1C1CCCCC1 (stereo not shown)  HCV polymerase (Hepatitis C virus genotype 1b)                  8.10
 7  CC(C)(C)C#Cc1cc(N2C(=O)[C@@H](CCCO)OC[C@H]2C2CCCCC2)c(C(=O)O)s1 (single isomer, unassigned)  HCV polymerase (Hepatitis C virus genotype 1b)                  8.40
 8  C[C@@H]1C[C@@H](O)CN1c1ccc(S(=O)(=O)N2CC(=O)N(c3cc(-c4ccccc4)sc3C(=O)O)C(C3CCCCC3)C2)cn1 (stereo partly shown)  HCV polymerase (Hepatitis C virus genotype 1b)                  8.70
 9  CC(C)CS(=O)(=O)N1CC(=O)N(c2cc(-c3ccccc3)sc2C(=O)O)C(C2CCCCC2)C1 (stereo not shown)  HCV polymerase (Hepatitis C virus genotype 1b)                  7.19
10  O=C(O)c1sc(-c2ccccc2)cc1N1C(=O)CN(S(=O)(=O)CCc2ccccc2)CC1C1CCCCC1 (stereo not shown)  HCV polymerase (Hepatitis C virus genotype 1b)                  7.29
11  CC(C)(C)OC(=O)N[C@H]1CCN(c2ccc(S(=O)(=O)N3CC(=O)N(c4cc(-c5ccccc5)sc4C(=O)O)[C@H](C4CCCCC4)C3)cn2)C1  HCV polymerase (Hepatitis C virus genotype 1b)                  8.70
12  COC[C@@H]1CCCN1c1ccc(S(=O)(=O)N2CC(=O)N(c3cc(-c4ccccc4)sc3C(=O)O)[C@H](C3CCCCC3)C2)cn1  HCV polymerase (Hepatitis C virus genotype 1b)                  8.70
